- target.of.assay: UniProtKB P28223
- Sequence (P28223 whole entry): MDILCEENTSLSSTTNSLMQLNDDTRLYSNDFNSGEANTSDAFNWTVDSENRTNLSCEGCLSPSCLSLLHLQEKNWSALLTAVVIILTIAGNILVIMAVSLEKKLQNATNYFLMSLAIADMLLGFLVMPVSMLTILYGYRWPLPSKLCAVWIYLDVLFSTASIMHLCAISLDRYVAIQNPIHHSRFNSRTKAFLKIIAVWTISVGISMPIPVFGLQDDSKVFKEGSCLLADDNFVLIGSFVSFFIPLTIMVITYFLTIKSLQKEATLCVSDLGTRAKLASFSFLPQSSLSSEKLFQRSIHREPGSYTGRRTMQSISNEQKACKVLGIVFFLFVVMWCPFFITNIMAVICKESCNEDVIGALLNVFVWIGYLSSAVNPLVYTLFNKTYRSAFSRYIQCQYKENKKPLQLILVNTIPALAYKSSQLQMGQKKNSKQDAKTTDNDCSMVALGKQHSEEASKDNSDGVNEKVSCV
pKi: −log10 of the molar value.
List of pKi values.

1) COc1cc2c(cc1OC)C1=NO[C@@H](CN3CCN(Cc4ccc5ccccc5c4)CC3)[C@@H]1CO2	< 6.00
2) COc1cc2c(cc1OC)C1=NO[C@@H](CN3CCN(C/C(C)=C/c4ccccc4)CC3)[C@@H]1CO2	< 6.00

Input: Could you share which pKi value was measured for COc1cc2c(cc1OC)C1=NO[C@@H](CN3CCN(C/C=C(\C)c4ccccc4)CC3)[C@@H]1CO2 ?
Output: < 6.00

###

- target.of.assay: Sodium-dependent serotonin transporter (Homo sapiens)
- Sequence (P31645 whole entry): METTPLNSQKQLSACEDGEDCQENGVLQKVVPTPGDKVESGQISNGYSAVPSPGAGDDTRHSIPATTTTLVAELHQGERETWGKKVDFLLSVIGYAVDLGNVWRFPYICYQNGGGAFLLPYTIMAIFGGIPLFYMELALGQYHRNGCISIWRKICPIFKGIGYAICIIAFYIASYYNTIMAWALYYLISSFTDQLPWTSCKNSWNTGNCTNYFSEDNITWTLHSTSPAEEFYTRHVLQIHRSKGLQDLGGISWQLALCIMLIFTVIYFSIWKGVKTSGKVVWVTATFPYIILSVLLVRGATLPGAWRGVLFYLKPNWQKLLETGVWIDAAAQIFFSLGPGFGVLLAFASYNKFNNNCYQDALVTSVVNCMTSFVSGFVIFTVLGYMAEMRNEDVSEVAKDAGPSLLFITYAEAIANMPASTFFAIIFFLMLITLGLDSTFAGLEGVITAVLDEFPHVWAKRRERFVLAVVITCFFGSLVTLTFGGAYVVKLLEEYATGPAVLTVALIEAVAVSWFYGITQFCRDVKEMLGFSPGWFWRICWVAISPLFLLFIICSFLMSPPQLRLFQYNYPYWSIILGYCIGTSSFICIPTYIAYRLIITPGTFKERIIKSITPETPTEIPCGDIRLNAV
- assay.name: Binding affinity for serotonin transporter
readout.type: Ki (nM)

A: C1=C[C@@H]2C(=NO[C@H]2CN2CCN(C/C=C/c3ccccc3)CC2)c2ccccc21
B: COc1cc2c(cc1OC)C1=NO[C@@H](CN3CCN(Cc4ccc5ccccc5c4)CC3)[C@@H]1CN2
Input: Given the listed records, identify the one among A and B with higher Ki. Record your answer as the label of the chosen record.
Output: A
(A: 106 nM, B: 1.5 nM)

###

- target.of.assay: Alpha-2C adrenergic receptor (Homo sapiens, UniProt P18825)
- Sequence (P18825 whole entry): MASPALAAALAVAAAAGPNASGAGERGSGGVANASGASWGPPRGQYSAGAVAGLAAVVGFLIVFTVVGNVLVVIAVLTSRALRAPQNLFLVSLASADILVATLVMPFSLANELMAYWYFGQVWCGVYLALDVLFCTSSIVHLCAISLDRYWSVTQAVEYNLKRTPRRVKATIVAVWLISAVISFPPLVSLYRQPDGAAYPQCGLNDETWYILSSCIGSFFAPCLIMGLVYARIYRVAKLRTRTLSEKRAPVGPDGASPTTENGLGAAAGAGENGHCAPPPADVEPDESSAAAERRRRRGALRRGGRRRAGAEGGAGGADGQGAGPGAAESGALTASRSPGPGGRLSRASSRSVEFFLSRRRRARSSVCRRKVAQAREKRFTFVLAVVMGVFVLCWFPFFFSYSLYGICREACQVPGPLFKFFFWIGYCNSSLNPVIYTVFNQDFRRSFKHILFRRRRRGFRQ
- assay.name: Binding affinity for alpha-2C adrenergic receptor
readout.type: Ki (nM)

1: COCCOc1ccc2c(c1)OC[C@@H]1C2=NO[C@H]1CN1CCN(C/C(C)=C/c2ccccc2)CC1
2: CN1C[C@@H]2C(=NO[C@H]2CN2CCN(C/C=C/c3ccccc3)CC2)c2ccccc21
3: C1=C[C@@H]2C(=NO[C@H]2CN2CCN(C/C=C/c3ccccc3)CC2)c2ccccc21
4: C/C(=C\c1ccccc1)CN1CCN(C[C@@H]2ON=C3c4ccc(OC(=O)C5CC5)cc4OC[C@H]32)CC1
5: COc1cc2c(cc1OC)C1=NO[C@@H](CN3CCN(Cc4ccc(Cl)cc4)CC3)[C@@H]1CN2
Input: Rank order required: Ki, descending. Write the labels, ordered according to the request.
Output: 3, 5, 2, 4, 1

a: COc1cc2c(cc1OC)C1=NO[C@@H](CN3CCN(C/C=C(\C)c4ccccc4)CC3)[C@@H]1CN2
b: CC(=O)N1C[C@@H]2C(=NO[C@H]2CN2CCN(CCC/C=C/c3ccccc3)CC2)c2ccccc21
Input: Given the listed records, identify the one among a and b with higher Ki. Record your answer as the label of the chosen record.
Output: b
(b: 11 nM, a: 3.6 nM)

I: CCOC(=O)N1C[C@@H]2C(=NO[C@H]2CN2CCN(C/C=C/c3ccccc3)CC2)c2ccccc21
II: C/C(=C\c1ccccc1)CN1CCN(C[C@@H]2ON=C3c4ccc(OC5CCCC5)cc4OC[C@H]32)CC1
III: COc1cc2c(cc1OC)C1=NO[C@@H](CN3CCN(C/C=C/c4ccccc4)CC3)[C@@H]1CN2
IV: CCNC(=O)N1C[C@@H]2C(=NO[C@H]2CN2CCN(C/C=C/c3ccccc3)CC2)c2ccccc21
V: COc1cc2c(cc1OC)C1=NO[C@@H](CN3CCN(CCOc4ccc(F)cc4)CC3)[C@@H]1CN2
Input: Descending sort on Ki required. Write the labels, ordered according to the request.
Output: I, III, IV, V, II
(I: 9.8 nM, III: 5.4 nM, IV: 2.7 nM, V: 1.6 nM, II: 0.5 nM)
